- system-tested: FGFR3 V555M (Homo sapiens, UniProt P22607, V555M)
- Construct: purchased Signalchem F06-12GG
- Sequence (P22607 397-806 V555M limits assumed): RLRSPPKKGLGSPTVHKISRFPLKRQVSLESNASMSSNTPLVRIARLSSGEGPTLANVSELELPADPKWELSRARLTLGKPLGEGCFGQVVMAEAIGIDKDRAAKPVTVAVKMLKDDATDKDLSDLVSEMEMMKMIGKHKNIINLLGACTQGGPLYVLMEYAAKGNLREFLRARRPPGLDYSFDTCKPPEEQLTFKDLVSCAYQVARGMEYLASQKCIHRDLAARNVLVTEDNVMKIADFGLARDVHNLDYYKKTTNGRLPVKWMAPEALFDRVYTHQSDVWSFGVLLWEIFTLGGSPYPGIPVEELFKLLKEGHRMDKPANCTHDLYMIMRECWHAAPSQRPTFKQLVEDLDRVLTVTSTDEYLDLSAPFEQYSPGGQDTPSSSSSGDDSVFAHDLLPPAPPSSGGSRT
- assay-method-text: Assay I: inhibitory activity against FGFR mutants (HTRF KinEASE-TK)
- Assay type: biochemical
- assay-setup: ATP 20 μM, substrate TK 1 μM
outcome-measure: IC50
Put your answer as a value accompanied by its unit after it.

Below, each entry is followed by its recorded IC50 result.
molecule | system-tested | IC50
C[C@@H](Oc1ccc2[nH]nc(-c3nc4c([nH]3)CN(C(=O)[C@@H]3CCCN3)C4)c2c1)c1c(Cl)cncc1Cl [Compound 44] | FGFR3 V555M (Homo sapiens, UniProt P22607, V555M) | 0.43 nM
CCOC(=O)N1Cc2nc(-c3n[nH]c4ccc(OC(C)c5c(Cl)cncc5Cl)cc34)[nH]c2C1 (stereo not shown) [Compound 23] | FGFR3 V555M (Homo sapiens, UniProt P22607, V555M) | 1.3 nM
CC(Oc1ccc2[nH]nc(-c3nc4c([nH]3)CN(C(=O)N3CC[C@H](O)C3)C4)c2c1)c1c(Cl)cncc1Cl (stereo partly shown) [Compound 10] | FGFR3 V555M (Homo sapiens, UniProt P22607, V555M) | 0.35 nM

Please look at the following molecule next.
// IC50 lookup, key: CC(Oc1ccc2[nH]nc(-c3nc4c([nH]3)CN(S(=O)(=O)c3cccnc3)C4)c2c1)c1c(Cl)cncc1Cl (stereo not shown) [Compound 7]
4 nM
